Experiment: Apparent permeability in MDCK-II cells
Format: ADME, cell-based, Canis lupus familiaris
Settings: dog, MDCK; read-out: Papp
Record form. Attribute: Papp. Fill in for each entry.
Give bare numbers, in ×10⁻⁶ cm/s.

Examples with answers:
INSERT INTO measurements (compound, value_unit, assay_value) VALUES
  ('CCOc1cccnc1Oc1cncc(-c2ncc(C(=O)NC(C)(C)CS(C)(=O)=O)cn2)c1', '×10⁻⁶ cm/s', 15),
  ('CCOc1cccnc1Oc1cncc(-c2ncc(C(=O)NC3CC(=O)N(C)C3)cn2)c1 (racemic)', '×10⁻⁶ cm/s', 1),
  ('CCOc1ccccc1O[C@@H]1CCCN(c2ncc(C(=O)NC(C)(C)CO)cn2)C1', '×10⁻⁶ cm/s', 19),
  ('CCOc1cccnc1Oc1cncc(-c2ncc(C(=O)NC3CCS(=O)(=O)C3)cn2)c1 (racemic)', '×10⁻⁶ cm/s', 5);

// below: Papp requested for another compound
Kindly note the recorded Papp for CCOc1cccnc1Oc1cncc(-c2ncc(C(=O)N[C@H]3CCOC3)cn2)c1 , which is 19

====

Experiment: Lipophilicity, logD of compound
Format: physicochemical
Conditions: octanol/water
Quantity measured: logD

// field: logD; key: CCOc1ccccc1O[C@@H]1CCCN(c2ncc(C(=O)NCc3cccc(C(=O)O)c3)cn2)C1 ; value = 0.7

====

Test: Volume of distribution at steady state in Wistar Han rat
Type: ADME
Conditions: in vivo, read-out: Vdss
Quantity measured: Vd
// unit must come after the numeric part

Lookup result for CCOc1cccnc1Oc1cncc(-c2ncc(C(=O)NC(C)(C)CO)cn2)c1 ; measured Vd: 1.2 L/kg

====

Molecular target: Diacylglycerol O-acyltransferase 2 (Rattus norvegicus)
Sequence (Q5FVP8 whole entry): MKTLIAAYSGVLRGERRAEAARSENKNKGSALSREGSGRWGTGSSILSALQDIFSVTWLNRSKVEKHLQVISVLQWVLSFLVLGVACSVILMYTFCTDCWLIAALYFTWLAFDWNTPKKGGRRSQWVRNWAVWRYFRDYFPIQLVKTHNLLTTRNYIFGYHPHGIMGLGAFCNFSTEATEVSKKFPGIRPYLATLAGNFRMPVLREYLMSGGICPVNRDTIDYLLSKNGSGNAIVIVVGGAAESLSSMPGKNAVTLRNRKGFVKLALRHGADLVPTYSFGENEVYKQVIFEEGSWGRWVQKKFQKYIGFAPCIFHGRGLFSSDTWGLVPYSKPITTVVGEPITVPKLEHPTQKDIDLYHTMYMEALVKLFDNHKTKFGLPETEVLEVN
Quantity measured: pIC50
One number for each entry, as −log10 of the molar value.

// sample CCOc1cccnc1Oc1cncc(-c2ncc(C(=O)N[C@H]3CCOC3)cn2)c1 , its pIC50 was 6.08

====

Assay: Plasma clearance in cynomolgus monkey at 1 mg/kg, iv
Format: ADME, organism-based, Macaca fascicularis
Quantity measured: clearance (mL/min/kg)
Give bare numbers, in mL/min/kg.

Field clearance (entry CCOc1cccnc1Oc1cncc(-c2ncc(C(=O)N[C@H]3CCOC3)cn2)c1 ) reads 10

====

Molecular target: UniProt:Q12809
Sequence (Q12809 whole entry): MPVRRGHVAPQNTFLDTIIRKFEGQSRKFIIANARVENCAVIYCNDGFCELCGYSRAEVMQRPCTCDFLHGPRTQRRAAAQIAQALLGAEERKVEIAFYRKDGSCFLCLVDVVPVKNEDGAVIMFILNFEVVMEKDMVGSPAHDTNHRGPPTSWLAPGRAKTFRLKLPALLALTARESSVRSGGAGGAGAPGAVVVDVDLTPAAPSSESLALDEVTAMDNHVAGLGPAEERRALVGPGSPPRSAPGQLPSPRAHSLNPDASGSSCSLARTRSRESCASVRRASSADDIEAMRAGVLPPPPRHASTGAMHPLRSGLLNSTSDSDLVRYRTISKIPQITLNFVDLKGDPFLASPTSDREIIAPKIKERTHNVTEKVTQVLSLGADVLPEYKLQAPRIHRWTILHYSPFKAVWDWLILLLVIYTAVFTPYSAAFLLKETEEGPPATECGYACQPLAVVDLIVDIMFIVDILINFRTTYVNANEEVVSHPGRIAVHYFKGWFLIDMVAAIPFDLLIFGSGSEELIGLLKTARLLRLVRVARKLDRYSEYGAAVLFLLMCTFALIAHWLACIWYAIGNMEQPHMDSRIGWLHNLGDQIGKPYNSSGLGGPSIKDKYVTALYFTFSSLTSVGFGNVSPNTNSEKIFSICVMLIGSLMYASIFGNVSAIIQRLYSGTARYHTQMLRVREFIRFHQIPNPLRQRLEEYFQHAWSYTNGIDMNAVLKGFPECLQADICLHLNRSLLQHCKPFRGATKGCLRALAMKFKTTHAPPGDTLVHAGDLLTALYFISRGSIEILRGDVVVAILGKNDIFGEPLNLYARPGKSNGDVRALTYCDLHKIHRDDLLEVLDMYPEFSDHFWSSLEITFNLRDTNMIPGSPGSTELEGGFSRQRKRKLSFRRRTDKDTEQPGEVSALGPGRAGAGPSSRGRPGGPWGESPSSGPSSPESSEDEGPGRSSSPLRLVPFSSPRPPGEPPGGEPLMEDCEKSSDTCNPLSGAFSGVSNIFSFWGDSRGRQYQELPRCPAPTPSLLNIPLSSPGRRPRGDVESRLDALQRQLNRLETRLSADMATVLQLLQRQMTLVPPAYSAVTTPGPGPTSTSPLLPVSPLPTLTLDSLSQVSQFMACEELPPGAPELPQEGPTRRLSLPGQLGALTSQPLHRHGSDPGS
Test: Inhibition of hERG by patch-clamp method
pIC50: −log10 of the molar value.
Quantity measured: pIC50

Recorded pIC50 (compound CCOc1cccnc1Oc1cncc(-c2ncc(C(=O)N[C@H]3CCOC3)cn2)c1 ): < 4.00

====

Molecular target: UniProt:O75907
Sequence (O75907 whole entry): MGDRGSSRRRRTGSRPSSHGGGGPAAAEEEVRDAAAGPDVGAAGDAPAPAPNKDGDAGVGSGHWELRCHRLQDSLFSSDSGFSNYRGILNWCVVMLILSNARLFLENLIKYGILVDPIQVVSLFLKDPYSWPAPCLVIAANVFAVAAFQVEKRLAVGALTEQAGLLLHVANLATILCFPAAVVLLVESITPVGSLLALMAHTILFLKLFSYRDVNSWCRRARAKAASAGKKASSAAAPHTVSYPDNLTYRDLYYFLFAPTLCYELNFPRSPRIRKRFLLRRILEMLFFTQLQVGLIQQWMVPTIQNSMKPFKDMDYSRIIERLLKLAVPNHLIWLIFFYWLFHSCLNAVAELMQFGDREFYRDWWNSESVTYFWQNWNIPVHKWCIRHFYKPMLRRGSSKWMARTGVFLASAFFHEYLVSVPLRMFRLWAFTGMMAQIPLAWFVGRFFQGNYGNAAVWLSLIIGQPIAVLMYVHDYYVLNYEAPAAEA
Quantity measured: IC50

Record summary for CCOc1cccnc1Oc1cncc(-c2ncc(C(=O)NC(C)(C)CO)cn2)c1 : reported IC50 = > 50 µM

====

Assay: Plasma clearance in Wistar Han rat at 1 mg/kg, iv
Type: ADME, organism-based
Quantity measured: clearance (mL/min/kg)
Numbers only, in mL/min/kg.

Noted for CCOc1cccnc1Oc1cncc(-c2ncc(C(=O)N[C@H]3CCOC3)cn2)c1 : its clearance reads 61

====

Assay: Apparent intrinsic clearance in human liver microsomes in presence of NADPH
Assay type: ADME, Microsome
Settings: read-out: CLH
Give measured microsomal CLint for each item. Keep answers brief.
One number for each entry, in µL/min/mg.

INSERT INTO results (chemical_smiles, assay_value) VALUES
  ('CCOc1cccnc1O[C@@H]1CCCN(c2ncc(C(=O)NC(C)(C)CO)cn2)C1', 108);

Go through the items and report each one's microsomal CLint.
1. CCOc1ccccc1O[C@@H]1CCCN(c2ncc(C(=O)NC(C)(C)CO)cn2)C1
2. CCOc1cccnc1Oc1cncc(-c2ncc(C(=O)NC(C)(C)CO)cn2)c1

121
14
